Listed below: % INHIB values for each entry.
test system: human apolipoprotein B mRNA; test: Inhibition of human apolipoprotein B mRNA levels in HepG2 cells, quantitative real-time PCR; format: cell-based; conditions: HepG2 cells; human apolipoprotein B mRNA; oligonucleotides targeting genomic sequence SEQ ID NO 334; averages from two experiments
In the oligonucleotide strings, read from the 5' end, every base follows the letter of its sugar. An asterisk marks phosphorothioate; unmarked linkages are phosphodiester. Other units and linkages are bracketed, terminal groups are in braces. A string of capitals states the bases alone. e = 2'-O-(2-methoxyethyl) (MOE); [5mC] = 5-methylcytosine; d = 2'-deoxy (DNA)
Return type: number; implicit unit %.

Please review the entries below; each comes with its answer.
>  <substance>
301207 (antisense eT*eT*e[5mC]*e[5mC]*e[5mC]*dA*dT*dT*d[5mC]*d[5mC]*d[5mC]*dT*dG*dA*dA*eA*eG*e[5mC]*eA*eG) [compound 301207]

>  <output_unit>
%

>  <% INHIB>
13

$$$$
>  <substance>
301150 (eG*eA*eA*eA*eG*dG*dA*dA*dG*dG*dA*d[5mC]*dT*dA*dG*e[5mC]*eA*eT*eA*eT; antisense) [compound 301150]

>  <output_unit>
%

>  <% INHIB>
39

$$$$
>  <substance>
301119 (antisense eA*e[5mC]*eA*eT*eA*d[5mC]*dA*dA*dA*dT*dG*dG*d[5mC]*dA*dA*eT*eA*eG*eG*e[5mC]) [compound 301119]

>  <output_unit>
%

>  <% INHIB>
33

$$$$

Request: Which % INHIB value belongs to 301167 (antisense e[5mC]*e[5mC]*eA*eA*eG*d[5mC]*d[5mC]*dT*d[5mC]*dT*dT*dT*dA*d[5mC]*dT*eG*eG*eG*e[5mC]*eT) [compound 301167] ?
Response: 29

Request: Another: 301134 (e[5mC]*e[5mC]*eA*eA*eG*d[5mC]*d[5mC]*dA*dA*dT*d[5mC]*dT*dG*dA*dG*eA*eA*eA*eG*eA; antisense) [compound 301134]
Response: 25

----------
Listed below: % INHIB values for each entry.
system: mouse apolipoprotein B mRNA; test: Inhibition of mouse apolipoprotein B mRNA levels in primary mouse hepatocytes, real-time PCR; assay type: cell-based; settings: Table 3, 150 nM, averages from two experiments
In the oligonucleotide strings, read from the 5' end, every base follows the letter of its sugar. An asterisk marks phosphorothioate; unmarked linkages are phosphodiester. Other units and linkages are bracketed, terminal groups are in braces. A string of capitals states the bases alone. e = 2'-O-(2-methoxyethyl) (MOE); [5mC] = 5-methylcytosine; d = 2'-deoxy (DNA)

Please review the entries below; each comes with its answer.
>  <substance>
147772 (antisense eG*eT*eT*eA*eT*dA*dA*dA*dG*dT*d[5mC]*d[5mC]*dA*dG*d[5mC]*eA*eT*eT*eG*eG) [compound 147772]

>  <target_or_test_system>
mouse apolipoprotein B mRNA

>  <% INHIB>
78%

$$$$
>  <substance>
147501 (e[5mC]*eT*eT*eG*eG*dT*dT*dA*dA*dA*d[5mC]*dT*dA*dA*dT*eG*eG*eT*eG*e[5mC]; antisense) [compound 147501]

>  <target_or_test_system>
mouse apolipoprotein B mRNA

>  <% INHIB>
18%

$$$$
>  <substance>
147498 (eT*eG*eG*eG*e[5mC]*dA*dA*d[5mC]*dG*dA*dT*dA*dT*d[5mC]*dT*eG*eA*eT*eT*eG; antisense) [compound 147498]

>  <target_or_test_system>
mouse apolipoprotein B mRNA

>  <% INHIB>
0%

$$$$
>  <substance>
147488 (eA*eG*e[5mC]*eT*eT*dG*d[5mC]*dT*dT*dG*dT*dT*dG*dG*dG*e[5mC]*eA*e[5mC]*eG*eG; antisense) [compound 147488]

>  <target_or_test_system>
mouse apolipoprotein B mRNA

>  <% INHIB>
72%

$$$$
>  <substance>
147482 (eG*eT*e[5mC]*e[5mC]*eA*dG*d[5mC]*d[5mC]*dT*dA*dG*dG*dA*dA*d[5mC]*eA*e[5mC]*eT*e[5mC]*eA; antisense) [compound 147482]

>  <target_or_test_system>
mouse apolipoprotein B mRNA

>  <% INHIB>
59%

$$$$

Request: Which % INHIB value belongs to 147491 (eG*eA*eG*eA*eA*dA*dT*d[5mC]*d[5mC]*dT*dT*d[5mC]*dA*dG*dT*eA*eA*eG*eG*eG; antisense) [compound 147491] ?
Response: 71%

Request: Another: 147502 (eA*eT*eG*eG*eG*dA*dG*d[5mC]*dA*dT*dG*dG*dA*dG*dG*eT*eT*eG*eG*e[5mC]; antisense) [compound 147502]
Response: 16%

Request: Another: 147481 (eT*eG*eA*e[5mC]*eT*dG*dT*d[5mC]*dA*dA*dG*dG*dG*dT*dG*eA*eG*e[5mC]*eT*eG; antisense) [compound 147481]
Response: 24%

Request: Another: 147771 (eG*eG*eT*eA*eA*dA*dG*dT*dT*dG*d[5mC]*d[5mC]*d[5mC]*dA*dT*eG*eG*e[5mC]*eT*eG; antisense) [compound 147771]
Response: 68%

Request: Another: 147773 (antisense e[5mC]*eA*eT*e[5mC]*eA*dG*dA*d[5mC]*dG*dT*dG*dA*dT*dG*dT*eT*e[5mC]*e[5mC]*e[5mC]*eT) [compound 147773]
Response: 85%

Request: Another: 147499 (e[5mC]*eT*eG*e[5mC]*eA*dG*dG*dG*d[5mC]*dG*dT*d[5mC]*dA*dG*dT*eG*eA*e[5mC]*eA*eA; antisense) [compound 147499]
Response: 29%
